Quick reference for protein stability index among some variants
B1: NET1 (parent)
chain: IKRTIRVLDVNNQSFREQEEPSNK

Variants of: B1
Assay: protein stability index of a GFP-peptide fusion (GPS, HEK-293T) (PSI 1-6); higher = more stable;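 further: lentivirally expressed fusions sorted by FACS into six bins by GFP to DsRed ratio, PSI derived from sequencing read proportions per bin multiplied by bin number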
Settings: c terminus: a fixed tail appended
I only need the number, thanks.

Example entries and their recorded answers appear below.
Primary Sequence	protein stability index
PKRTIRVLDVNNQSFREQEEPSNK [I1P]	3.94
IKRTIRVLDVNNQSFIEQEEPSNK [R16I]	3.83
HKRTIRVLDVNNQSFREQEEPSNK [I1H]	4.81
IKRTIRYLDVNNQSFREQEEPSNK [V7Y]	3.04
IKRTIRVLDVNNQSFREQESPSNK [E20S]	3.57
IKRTIVVLDVNNQSFREQEEPSNK [R6V]	2.77

Query: State, in one line, measured protein stability index of IKRTIRVLDVNNQSVREQEEPSNK [F15V]
Response: 3.79

Query: Input IKRTIRVLDVNNMSFREQEEPSNK [Q13M] , output reported protein stability index.
Response: 3.8
